The measured values listed here are drawn from patent US20240246960A1.

# Target or system: DNA-PK (Homo sapiens, UniProt P78527)
# Construct: purchased Invitrogen PR9107A
# Procedure details: DNA-PK Assay for Biochemical Enzymatic Inhibition (ADP Glo Kinase assay)
# Run parameters: Table 1
Assay readout: IC50

Look at this molecule and give its reported IC50. "c1cnc2cc(N3CCOCC3)nc(O[C@H]3CC[C@@H](Nc4cncnc4)CC3)c2c1" 0.5 to 1 nM

What does the record list as IC50 for "Cc1cnc(C(=O)N[C@H]2CC[C@@H](Oc3nc(N4CCOCC4)cc4ncccc34)CC2)nc1" ? 0.5 to 1 nM

# get_value(readout='IC50', item= "O=C(N[C@H]1CC[C@@H](Oc2nc(N3CCOCC3)cc3ncccc23)CC1)n1cccn1" ) 0.5 to 1 nM

Query (molecule): "O=C(N[C@H]1CC[C@@H](Oc2nc(N3CCOCC3)cc3ncccc23)CC1)c1c[nH]cn1" ; field requested: IC50 0.5 to 1 nM

If you can, please state the reported IC50 value of "O=S(=O)(N[C@H]1CC[C@@H](Oc2nc(N3CCOCC3)cc3ncccc23)CC1)c1ccc(F)cc1" . 10 to 150 nM

---

# Test system: FaDu cell line
# Procedure details: Prodrug activation in hypoxic stirred tumour cell suspensions
# Assay type: in vitro ADME
# Run parameters: 10 μM, 4 hours, 0.2% O2
Assay readout: Fraction of prodrug converted to active form, Hypoxic 0.2% O2

Cn1c(Cn2ncnc2-c2cnc3cc(N4CCOCC4)nc(O[C@H]4CC[C@@H](Nc5ncccn5)CC4)c3c2)cnc1[N+](=O)[O-] [LFA139]	B (B is 0.05 to 0.15)
CC(c1cnc([N+](=O)[O-])n1C)N(c1cnc2cc(N3CCOCC3)nc(OC3CCC(Nc4ncc(C(F)(F)F)cn4)CC3)c2c1)S(C)(=O)=O (stereo not shown) [LFA024]	B (B is 0.05 to 0.15)
Cn1c(CN(c2cnc3cc(N4CCOCC4)nc(OC4CCC(Nc5ncc(C(F)(F)F)cn5)CC4)c3c2)S(C)(=O)=O)cnc1[N+](=O)[O-] (stereo not shown) [LFA023]	B (B is 0.05 to 0.15)

---

# Procedure details: Hepatocyte stability assay, mouse hepatocytes
# Type: in vitro ADME
# Run parameters: 120 min
Assay readout: Hepatocyte Stability (mouse) % rem. 120 min

Before answering, review these 10 worked examples.
COc1cnc(N[C@H]2CC[C@@H](Oc3nc(N4CCOCC4)cc4ncc(NS(C)(=O)=O)cc34)CC2)nc1	F (% remaining = 25-50%)
O=C(N[C@H]1CC[C@@H](Oc2nc(N3CCOCC3)cc3ncccc23)CC1)c1ccncc1	G (% remaining = 50-75%)
CS(=O)(=O)Nc1cnc2cc(N3CCOCC3)nc(O[C@H]3CC[C@@H](Nc4ncccn4)CC3)c2c1	G (% remaining = 50-75%)
COc1ccnc(N[C@H]2CC[C@@H](Oc3nc(N4CCOCC4)cc4ncccc34)CC2)n1	F (% remaining = 25-50%)
CN(c1cnc2cc(N3CCOCC3)nc(O[C@H]3CC[C@@H](Nc4ncccn4)CC3)c2c1)S(C)(=O)=O	G (% remaining = 50-75%)
c1cnc2cc(N3CCOCC3)nc(O[C@H]3CC[C@@H](Nc4cncnc4)CC3)c2c1	E (% remaining = 0-25%)
c1cnc2cc(N3CCOCC3)nc(O[C@H]3CC[C@@H](Nc4ncc5[nH]ccc5n4)CC3)c2c1	E (% remaining = 0-25%)
c1cnc2cc(N3CCOCC3)nc(O[C@H]3CC[C@@H](Nc4ncnc5occc45)CC3)c2c1	E (% remaining = 0-25%)
c1cnc2cc(N3CCOCC3)nc(O[C@H]3CC[C@@H](Nc4ncc5sccc5n4)CC3)c2c1	F (% remaining = 25-50%)
FC(F)c1ccc2c(O[C@H]3CC[C@@H](Nc4ncccn4)CC3)nc(N3CCOCC3)cc2n1	G (% remaining = 50-75%)

Which value of Hepatocyte Stability (mouse) % rem. 120 min has been reported for "CS(=O)(=O)Nc1cnc2cc(N3CCOCC3)nc(O[C@H]3CC[C@@H](n4ccnc4)CC3)c2c1" in the records? G (% remaining = 50-75%)

Entry "O=C(N[C@H]1CC[C@@H](Oc2nc(N3CCOCC3)cc3ncccc23)CC1)c1ccnnc1" has what Hepatocyte Stability (mouse) % rem. 120 min? G (% remaining = 50-75%)

Hepatocyte Stability (mouse) % rem. 120 min for c1cnc(N[C@H]2CC[C@@H](Oc3nc(N4CCOCC4)cc4ncccc34)CC2)nc1 [Compound 20a] ? F (% remaining = 25-50%)
